- Tested on: HCT15 / SKBR3
- experiment_summary: SRB cytotoxicity ratio HCT15/SKBR3 (topoisomerase resistance)
- Assay type: cell-based, human
- cond: human, hct15/skbr3 cells, 2880 min
Where a name gives a salt, the structure may show the parent alone.

{"columns": ["molecule", "HCT15/SKBR3 IC50 ratio"],
 "data": [
  ["COc1cc([C@@H]2c3cc4c(cc3[C@@H](O[C@@H]3O[C@@H]5CO[C@@H](C)O[C@H]5[C@H](O)[C@H]3O)[C@H]3COC(=O)[C@H]23)OCO4)cc(OC)c1O [Etoposide, etoposide, reference compound]", 22.3],
  ["Cn1cc2c3c1C(=O)C(N)=CC3=[N+](C)CC2", 1.8],
  ["O=C1C(NC2Cc3cc(Br)c(O)cc3S2)=CC2=NCCc3c[nH]c1c32 (stereo not drawn) [Example 6, trifluoroacetate]", 3.5],
  ["CC(CCC(C)NC1=CC2=[N+](C)CCc3c[nH]c(c32)C1=O)NC1=CC2=[N+](C)CCc3c[nH]c(c32)C1=O (racemic)", 32.1],
  ["Cn1cc2c3c1C(=O)C(N)=CC3=[N+](Cc1ccccc1)CC2", 3.5],
  ["Cn1cc2c3c1C(=O)C(N)=C(Br)C3=NCC2", 2.1]
]}
